test: Intravenous and buccal pharmacokinetic study in the minipig; type: in vivo; conditions: male, Göttingen, in vivo, 0.04 mg/kg, buccal 0.040 mg/kg, mean, read-out: Plasma concentration Day 5 Hour 0.17, Mean
Where a name gives a salt, the structure may show the parent alone.
readout.type: concentration at 0.17 h (ng/mL)
Answers are plain numbers, in ng/mL.

Recorded concentration at 0.17 h for CCCN1CCC[C@@H]2Cc3c(ccc(O)c3O)C[C@H]21 [compound 10, hydrobromide] , please?
3.27

* * *

Assay: Intravenous and buccal pharmacokinetic study in the minipig
Type: in vivo
Settings: male, Göttingen, in vivo, 0.04 mg/kg, buccal 0.040 mg/kg, mean, read-out: Plasma concentration Day 1 Hour 8, Mean
Method: The test article was compound 10. […] The plasma concentrations of compound 10 were determined after solid phase extraction of the plasma samples followed by high performance liquid chromatography with tandem mass spectrometric detection (LC-MS/MS) using a sample volume of about 100 microL. […]
Where a name gives a salt, the structure may show the parent alone.
readout.type: concentration at 8 h (ng/mL)
Give bare numbers, in ng/mL.

Recorded concentration at 8 h for CCCN1CCC[C@@H]2Cc3c(ccc(O)c3O)C[C@H]21 [compound 10, hydrobromide] , please?
0.522

* * *

Assay: Intravenous and buccal pharmacokinetic study in the minipig
Format: in vivo
Conditions: male, Göttingen, in vivo, 0.04 mg/kg, buccal 0.040 mg/kg, range, read-out: bioavailability
Protocol: The test article was compound 10. […] The plasma concentrations of compound 10 were determined after solid phase extraction of the plasma samples followed by high performance liquid chromatography with tandem mass spectrometric detection (LC-MS/MS) using a sample volume of about 100 microL. […]
Where a name gives a salt, the structure may show the parent alone.
readout.type: bioavailability

Recorded bioavailability for CCCN1CCC[C@@H]2Cc3c(ccc(O)c3O)C[C@H]21 [compound 10, hydrobromide] , please?
73 to 136%

* * *

Assay: Intravenous and buccal pharmacokinetic study in the minipig
Format: in vivo
Conditions: male, Göttingen, in vivo, iv, 0.0025 mg/kg, IV 0.0025 mg/kg, mean, read-out: Plasma concentration Day 1 Hour 16, Mean
Procedure: The test article was compound 10. […] The plasma concentrations of compound 10 were determined after solid phase extraction of the plasma samples followed by high performance liquid chromatography with tandem mass spectrometric detection (LC-MS/MS) using a sample volume of about 100 microL. […]
Structures can show the parent of a compound that is named as a salt.
readout.type: concentration at 16 h (pg/mL)
Give bare numbers, in pg/mL.

Recorded concentration at 16 h for CCCN1CCC[C@@H]2Cc3c(ccc(O)c3O)C[C@H]21 [compound 10, hydrobromide] , please?
9.31

* * *

assay: Intravenous and buccal pharmacokinetic study in the minipig; type: in vivo; details: male, Göttingen, in vivo, iv, 0.0025 mg/kg, IV 0.0025 mg/kg, individual animals 1-3, read-out: Plasma concentration Day 1 Hour 0.25
Structures can show the parent of a compound that is named as a salt.
readout.type: concentration at 0.25 h (ng/mL)
One number for each entry, in ng/mL.

Recorded concentration at 0.25 h for CCCN1CCC[C@@H]2Cc3c(ccc(O)c3O)C[C@H]21 [compound 10, hydrobromide] , please?
0.74

* * *

assay: Intravenous and buccal pharmacokinetic study in the minipig; assay type: in vivo; conditions: male, Göttingen, in vivo, 0.01 mg/kg, buccal 0.010 mg/kg, individual animals 1-3, read-out: Plasma concentration Day 3 Hour 1
Structures can show the parent of a compound that is named as a salt.
readout.type: concentration at 1 h (ng/mL)
One number for each entry, in ng/mL.

Recorded concentration at 1 h for CCCN1CCC[C@@H]2Cc3c(ccc(O)c3O)C[C@H]21 [compound 10, hydrobromide] , please?
1

* * *

assay: Intravenous and buccal pharmacokinetic study in the minipig; format: in vivo; settings: male, Göttingen, in vivo, iv, 0.0025 mg/kg, IV 0.0025 mg/kg, individual animals 1-3, values below LLOQ 10 pg/mL estimated, read-out: Plasma concentration Day 1 Hour 16
Structures can show the parent of a compound that is named as a salt.
readout.type: concentration at 16 h (pg/mL)
Give bare numbers, in pg/mL.

Recorded concentration at 16 h for CCCN1CCC[C@@H]2Cc3c(ccc(O)c3O)C[C@H]21 [compound 10, hydrobromide] , please?
8.58

* * *

assay: Intravenous and buccal pharmacokinetic study in the minipig; type: in vivo; details: male, Göttingen, in vivo, 0.04 mg/kg, buccal 0.040 mg/kg, mean, read-out: Plasma concentration Day 1 Hour 6, Mean
Structures can show the parent of a compound that is named as a salt.
readout.type: concentration at 6 h (ng/mL)
Give bare numbers, in ng/mL.

Recorded concentration at 6 h for CCCN1CCC[C@@H]2Cc3c(ccc(O)c3O)C[C@H]21 [compound 10, hydrobromide] , please?
0.93

* * *

Test: Intravenous and buccal pharmacokinetic study in the minipig
Type: in vivo
Conditions: male, Göttingen, in vivo, 0.01 mg/kg, buccal 0.010 mg/kg, read-out: bioavailability, mean values
Method: The test article was compound 10. […] The plasma concentrations of compound 10 were determined after solid phase extraction of the plasma samples followed by high performance liquid chromatography with tandem mass spectrometric detection (LC-MS/MS) using a sample volume of about 100 microL. […]
Where a name gives a salt, the structure may show the parent alone.
readout.type: bioavailability

Recorded bioavailability for CCCN1CCC[C@@H]2Cc3c(ccc(O)c3O)C[C@H]21 [compound 10, hydrobromide] , please?
31 to 35%

* * *

experiment: Intravenous and buccal pharmacokinetic study in the minipig; type: in vivo; conditions: male, Göttingen, in vivo, iv, 0.0025 mg/kg, IV 0.0025 mg/kg, individual animals 1-3, read-out: Plasma concentration Day 1 Hour 0.08
Where a name gives a salt, the structure may show the parent alone.
readout.type: concentration at 0.08 h (ng/mL)
Give bare numbers, in ng/mL.

Recorded concentration at 0.08 h for CCCN1CCC[C@@H]2Cc3c(ccc(O)c3O)C[C@H]21 [compound 10, hydrobromide] , please?
1.21

* * *

test: Intravenous and buccal pharmacokinetic study in the minipig; assay type: in vivo; details: male, Göttingen, in vivo, 0.01 mg/kg, buccal 0.010 mg/kg, mean, read-out: Plasma concentration Day 3 Hour 1, Mean
Structures can show the parent of a compound that is named as a salt.
readout.type: concentration at 1 h (ng/mL)
Give bare numbers, in ng/mL.

Recorded concentration at 1 h for CCCN1CCC[C@@H]2Cc3c(ccc(O)c3O)C[C@H]21 [compound 10, hydrobromide] , please?
0.869

* * *

test system: rats with unilateral 6-OHDA lesions; assay: D1/D2 dissection, rotation response in rats with unilateral 6-OHDA lesions; assay type: in vivo, rat; conditions: dosed SC, 6-OHDA rats; * = rotations could not be blocked by SCH23390
Where a name gives a salt, the structure may show the parent alone.
readout.type: MEDNemonapride (MED to overcome Nemonapride block) (mg/kg)
Give bare numbers, in mg/kg.

>>> df
                                 molecule  recorded_measurement
0  CCCN[C@H]1CCc2nc(N)sc2C1 [pramipexole]                   1.0

# map each molecule to its MEDNemonapride (MED to overcome Nemonapride block)
1. CN1CCc2cccc3c2[C@H]1Cc1ccc(O)c(O)c1-3 [apomorphine, reference compound]
2. CCCN1CCC[C@@H]2Cc3c(ccc(O)c3O)C[C@H]21 [compound 10, hydrobromide]
3. CCCN(CCc1cccs1)[C@H]1CCc2c(O)cccc2C1

1. 0.030
2. 0.0013
3. 0.30

* * *

assay: Intravenous and buccal pharmacokinetic study in the minipig; assay type: in vivo; conditions: male, Göttingen, in vivo, 0.04 mg/kg, buccal 0.040 mg/kg, mean, read-out: Plasma concentration Day 5 Hour 0.08, Mean
Structures can show the parent of a compound that is named as a salt.
readout.type: concentration at 0.08 h

Recorded concentration at 0.08 h for CCCN1CCC[C@@H]2Cc3c(ccc(O)c3O)C[C@H]21 [compound 10, hydrobromide] , please?
1.29 ng/mL

* * *

assay: Intravenous and buccal pharmacokinetic study in the minipig; assay type: in vivo; conditions: male, Göttingen, in vivo, IV bolus 0.0025 mg/kg, range of animals, read-out: apparent terminal elimination half-life (t½)
Counter-ions that a name gives are not always drawn.
readout.type: half-life

Recorded half-life for CCCN1CCC[C@@H]2Cc3c(ccc(O)c3O)C[C@H]21 [compound 10, hydrobromide] , please?
3.4 to 4.3 h

* * *

Assay: Intravenous and buccal pharmacokinetic study in the minipig
Assay type: in vivo
Details: male, Göttingen, in vivo, iv, 0.0025 mg/kg, IV 0.0025 mg/kg, individual animals 1-3, read-out: Plasma concentration Day 1 Hour 1
Description: The test article was compound 10. […] The plasma concentrations of compound 10 were determined after solid phase extraction of the plasma samples followed by high performance liquid chromatography with tandem mass spectrometric detection (LC-MS/MS) using a sample volume of about 100 microL. […]
Structures can show the parent of a compound that is named as a salt.
readout.type: concentration at 1 h (ng/mL)
One number for each entry, in ng/mL.

Recorded concentration at 1 h for CCCN1CCC[C@@H]2Cc3c(ccc(O)c3O)C[C@H]21 [compound 10, hydrobromide] , please?
0.379

Origin of values: patent US20120077836A1
